- Test system: HOP-92
- procedure text: Antitumor activity against human HOP-92 cells assessed as reduction of cell growth at 10 uM after 48 hrs by SRB assay
- Assay type: functional
- Parameters: scale not given: the % may be the effect or the level left
property name: Activity (%)
# value in %; strip the unit string

These solved cases illustrate the format of a correct answer.
- structure smiles: "CCOC1=C2CC[C@@H]3[C@H](CC[C@]4(C)C(=O)CC[C@@H]34)[C@@]2(C)CCC1=O"
  property name: "Activity"
  units of measure: "%"
  obs value: 92.93
- structure smiles: "C[C@]12CCC(=O)C(N)=C1C=C[C@@H]1[C@@H]2CC[C@]2(C)C(=O)CC[C@@H]12.Cl"
  property name: "Activity"
  units of measure: "%"
  obs value: 61.94
- structure smiles: "C[C@]12CCC(=O)C(Oc3ccccc3)=C1CC[C@@H]1[C@@H]2CC[C@]2(C)C(=O)CC[C@@H]12"
  property name: "Activity"
  units of measure: "%"
  obs value: 87.06

Sample C[C@]12CC[C@H]3[C@@H](CCC4=CC(=O)CC[C@@]43CF)[C@@H]1CCC2=O — what was its Activity?
113.59

Values compiled from ChEMBL document CHEMBL1142454.
